Known IC50 of a selection of compounds
tested on: Plasmodium falciparum; assay: Anti-protozoan data: P. falcip. IC50; type: cell-based; details: Tables VI(a), VI(c), read-out: P. falcip. IC50
TEST READOUT: IC50

1) Cl.Cl.c1cc(C2=NCCN2)ccc1OCCCCCOc1ccc(-c2cc3ccc(C4=NCCN4)cc3o2)cc1 [Compound 76, dihydrochloride] : 28 nM
2) CC(C)NC(=N)c1ccc(OCCCOc2cccc(-c3cc4ccc(C(=N)NC(C)C)cc4o3)c2)cc1.Cl.Cl [Compound 57, dihydrochloride] : 202 nM
3) N=C(NO)c1ccc(OCCCOc2ccc(-c3cc4cc(C(=N)NO)ccc4o3)cc2)cc1 : 1400 nM
4) CC(C)NC(=N)c1ccc(OCCCCCOc2cccc(-c3cc4ccc(C(=N)NC(C)C)cc4o3)c2)cc1.Cl.Cl [Compound 63, dihydrochloride] : 294 nM

###

Known MIC80 of a selection of compounds
tested on: Candida albicans; experiment: Anti-fungal data: Candida albicans; format: cell-based; conditions: strain A39
Counter-ions that a name gives are not always drawn.
TEST READOUT: MIC80 (µg/mL)

1. Cl.Cl.c1cc(C2=NCCN2)ccc1OCCCCCCOc1ccc(-c2cc3cc(C4=NCCN4)ccc3o2)cc1 : 10
2. Cl.Cl.c1cc(C2=NCCN2)ccc1OCCCCCOc1ccc(-c2cc3cc(C4=NCCN4)ccc3o2)cc1 : 10
3. CC(C)NC(=N)c1ccc(OCCCCCOc2ccc(-c3cc4cc(C(=N)NC(C)C)ccc4o3)cc2)cc1.Cl.Cl : 100
4. CC(C)NC(=N)c1ccc2oc(CCCCc3cc4cc(C(=N)NC(C)C)ccc4o3)cc2c1 [Compound 21, dihydrochloride] : 10
5. Cl.Cl.N=C(N)c1ccc2oc(CCc3cc4cc(C(=N)N)ccc4o3)cc2c1 : 100
6. CC(C)NC(=N)c1ccc(OCCCCOc2ccc(-c3cc4cc(C(=N)NC(C)C)ccc4o3)cc2)cc1.Cl.Cl : 100
7. CC(C)NC(=N)c1ccc(OCCCCCOc2cccc(-c3cc4cc(C(=N)NC(C)C)ccc4o3)c2)cc1.Cl.Cl : 10
8. Cl.Cl.N=C(N)c1ccc(OCCCCCOc2cccc(-c3cc4cc(C(=N)N)ccc4o3)c2)cc1 : 0.78
9. Cl.Cl.c1cc(C2=NCCN2)ccc1OCCCOc1ccc(-c2cc3cc(C4=NCCN4)ccc3o2)cc1 : 10
10. Cl.Cl.N=C(N)c1ccc(OCCCCCOc2cccc(-c3cc4ccc(C(=N)N)cc4o3)c2)cc1 : 0.39
11. Cl.Cl.N=C(N)c1ccc(OCCCCCCOc2ccc(-c3cc4cc(C(=N)N)ccc4o3)cc2)cc1 : 1.56

###

system: J774 macrophages; assay: Toxicity against J774 macrophages (IC50); assay type: cell-based; settings: Mus musculus, Tables I-III, V
Known IC50 of a selection of molecules
TEST READOUT: IC50 (nM)

1. Cl.Cl.N=C(N)c1ccc(OCCCCCCOc2ccc(-c3cc4cc(C(=N)N)ccc4o3)cc2)cc1 [Compound 53, dihydrochloride] : 600
2. Cl.Cl.N=C(N)c1ccc2oc(CCc3cc4cc(C(=N)N)ccc4o3)cc2c1 [Compound 8, dihydrochloride] : 15000
3. CC(C)NC(=N)c1ccc(OCCCCCCOc2ccc(-c3cc4ccc(C(=N)NC(C)C)cc4o3)cc2)cc1.Cl.Cl [Compound 78, dihydrochloride] : 730

Source of measurements: patent US20080114047A1
